# method.summary: folding stability dG unfold (combined trypsin and chymotrypsin); higher = more stable
Items are presented alongside their recorded folding stability dG unfold.
Form entry: value (kcal/mol) — number only.

SAGGIKIMIPPGMPEEEARELARMIASMLPDNGHNIDDVKVRPVKPMPPPDGEPHRMYEFEIKLEPPSAGGS [r16_266_TrROS]	0.738

// folding stability dG unfold lookup, key: SAGGSAGGSAGGIKDVKITEFERHPENNWYEVKISIPNGKPVEIPMNPGQSAEDILDQISAGGSAGGSAGGS [r10_984_TrROS]
0.421

Okay, and SAGGSAGGSAGKTVVIEIKGMSKEQVLNLIKELAEKYPNSKIIITNENGEKIEINVKDLKSAGGSAGGSAGG [r11_541_TrROS_Hall] ?
2.85

Okay, and SWNLRLEIEEVEIEPSDNWIIIMVRVEIEGRNPDDPNKPRPVFEVWVMIPIPLPPPKPKPDPDDPAAAKDSA [r9_357_TrROS] ?
2.8

Okay, and SAGGSAGGSAGEPIKGIIRVYNPETGEVTDIELEFKTLEEALAFAASLPPTVARVEIVFASAGGSAGGSAGG [r11_25_TrMRF] ?
2.66

Okay, and SAGPITPEEIQEKVTKAMEEEGMDNVNVDVQRDEDNGRITIQVEVQMPPGNKEKAQRIQDAIQDELGIKSAG [r5_9_TrROS] ?
0.277

* * *

# method.summary: folding stability dG unfold from trypsin proteolysis; higher = more stable
# cutoff 2 kcal/mol applies to folding stability dG unfold; >= gives 1 (yes), < gives 0 (no)

SAGGMYMVQIEVRSPDKEIPFMIMVPEDDPKKIVDDIKEEIAEEAGADNVNIKIEVYRMDENGEWEWISAGG [r13_877_TrROS]	0 (no)

Item PNFKIDIEIIKAEEVPPRPTDDGKPQPVRRIHIRIEVKGPPDQPPELANNIVEEIMAELQELGLPVHIHVWS [r1_305_TrROS] with folding stability dG unfold of 2 kcal/mol or above?
0 (no)

Okay, and SAGKFKITNISPMEERKPEDDKWEEQPYIMIRMRWKDPQKALDEIKEEFGYPVNIQRDPDDGWATIMIPSAG [r5_907_TrROS] ?
0 (no)

Okay, and SAGGSAGGSAGGAPVEVKTAVFRHPDNPRWYVLRVARLPGTGRLVVVLFDPETGEFAVFPSAGGSAGGSAGG [r7_923_TrMRF] ?
0 (no)

Okay, and SAGGSAGGSAGMKSTVTQPGDTWTITITDPETGEVTTYTLTPAQLGELAASSRPVAVAPGSAGGSAGGSAGG [r11_741_JUSTAS] ?
0 (no)

Okay, and SSMSSSPLGSDPATGTTYYLSVSNNSTTLSTVTPAPVLPISPEELEKIAKELAKKNPKLAKKAKELAEKLKS [r1_330_JUSTAS] ?
0 (no)

Okay, and SAGGSAGGSAMLYRITVRNADGEKLEIVVEMSEDEVRALAEELRKAGYEVRVEPIPEGEEPSAGGSAGGSAG [r3_35_TrROS_Hall] ?
1 (yes)

* * *

# method.summary: folding stability dG unfold (combined trypsin and chymotrypsin); higher = more stable
Category | rule: reported folding stability dG unfold within range, see class A (below 5 kJ/mol), class B (5 kJ/mol to below 10 kJ/mol), class C (10 kJ/mol or more)

Example entries begin here.
SAGGSAGGSAEWKPITYWVPPGQSIKEIADDLMDKNPRITDAEMEYDPDGYMKVTLTVRLDSAGGSAGGSAG [r3_371_TrROS]	class A
SAGGSAGGSAPTSSVVTFPYESPEEARERARELAEEERARRGVRFRVEYDPATGTVTLTAVESAGGSAGGSA [r18_368_JUSTAS]	class A
SAGGMKVTPNGKVVKKKPKVPVKKVTLTVKVKTAEEAKALADALRDLGYKVTVDEETGVVTVEVEIESAGGS [r16_765_TrROS_Hall]	class B
SAGGSSSSTSTRIDPTTGEWVTSTSSFPVPPAPPYIEVRLDVPPEEAEALREKLLAEHPDLPVRLEASAGGS [r8_437_JUSTAS]	class A
SAGGSAGGSKTIVITIEPNVKTPEQLLELLKKIRELSKPGEKIVIIASPEVLEALKKAGLIEESAGGSAGGS [r12_992_TrROS_Hall]	class C
MTPTFTVTELPPDLLRVEYTDPVTGKRATFTLPVSPVGDGVRLSAEVDAEGLPEEVAAAIRDAALAALAAAS [r1_403_JUSTAS]	class B

Which of the defined bands does the recorded folding stability dG unfold of SAGGSAGGSAMEEYEIRVPDKPITIHRSPDGNYSLQYFDNKKTETIPADDLDDLPPGDLFRSAGGSAGGSAG [r3_256_TrROS] sit within?
class A

Okay, and SAGGSAGGSALIIVAPDGFIISIEWPNGKPRTIMMPPDEIDEILEDDGIKDIEIQKLPPGASAGGSAGGSAG [r3_141_TrROS] ?
class A

Okay, and SAGGSMEIVKKETFTLEDGRKIEVVYDKETNKYVVKIYNKETGEEVEITVKSKEEAEEALKKLLEESAGGSA [r2_70_TrROS_Hall] ?
class C

Okay, and SGEPVIVKITFPDGTVLEIEFEGTPEEVKEAVEEEIKEYAKKHGLKPGEFKVEVIKAGDKTKETYTIKVESA [r9_1193_TrMRF] ?
class B

Okay, and SAGIRFRPGARIEWQNPDNGKKVEIRMREIRDRIQEINGNENPEQITAEQIQEWAREHGFRPIKIEPPSAGG [r19_67_TrROS] ?
class A

Okay, and SAGMMTIEIELKNGKKIKIEVEKKNGKYIIKITVYDKNGKKVKEVKIEVPKKNMSLEEIIKEALKKLLKSAG [r5_630_TrROS_Hall] ?
class C

Attribution: the supplement of paper PMC12764529
